TEST SYSTEM: DLG2_2, Q15700
Sequence (Q15700 189-283): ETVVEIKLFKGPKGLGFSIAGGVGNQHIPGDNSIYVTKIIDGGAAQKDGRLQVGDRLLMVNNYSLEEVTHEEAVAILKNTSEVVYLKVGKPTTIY
ASSAY EXPLANATION: holdup assay
Set-up: key: below the threshold = too weak to quantify, mostly under pKd 3.1 to 4
PROTOCOL CONDITIONS: plain residues with an end cap or a label only (N-terminal biotin on a linker: ado-ado)

BINDER	pKd
SKENVQETQI [LRRC4B, Q9NT99]	4.47
RHGSCVETSL [TMEM151B, Q8IW70]	4.32
KKMPSIESDV [GRIN2A, Q12879]	5.04
TKGPRGPTRV [SAPCD1, Q5SSQ6]	4.38
